B1: TRIM55 (parent)
chain: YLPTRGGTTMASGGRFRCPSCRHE

Variants of: B1
assayName: protein stability index of a GFP-peptide fusion (GPS, HEK-293T) (PSI 1-6); higher = more stable;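 note: lentivirally expressed fusions sorted by FACS into six bins by GFP to DsRed ratio, PSI derived from sequencing read proportions per bin multiplied by bin number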
testConditions: c terminus: a fixed tail appended
reportedMetric: protein stability index

1) G6Q; 2.15
2) S20R; 2.04
3) R17H; 2.56
